biological target: GalNAc(b1-4)GlcNAc; test: glycan array binding signal (z-score within array); higher = stronger binding; conditions: glycan notation: IUPAC condensed, linker removed
This excerpt belongs to a sample that is enriched for the strongest signals.
Value kind: glycan array binding signal (z-score)

[[record]]
binder = "Als3-2 (Candida albicans) (protein) KTITGVFNSFNSLTWSNAATYNYKGPGTPTWNAVLGWSLDGTSASPGDTFTLNMPCVFKFTTSQTSVDLTAHGVKYATCQFQAGEEFMTFSTLTCTVSNTLTPSIKALGTVTLPLAFNVGGTGSSVDLEDSKCFTAGTNTVTFNDGGKKISINVDFERSNVDPKGYLTD"
result = 0.934


query: Give the measured glycan array binding signal (z-score) of AcfC (Vibrio cholerae), Q57410 (protein) MKSKNRFLLISLLSFSTSVFADVNLYGPGGPHVPLIKVAESFEKSQSKRVNITFGPQATWNDKAKKNADILFGASEHSALAIAEGHSERFSKFNIHPVFMREAIILVKKGNPKNIKGMADLLKPGIGIVVNDGAGVSNTSGTAVWEDSVGRMKNVEKLQAFRSNIHVFAPNSGSARKAFVDGEDIDAWITWVDWAIANPTIGDMVRMEDEYRIYRDFNVVLAKNPSSEAIDFFDYLTKSKDAEAIFQHYGWFK .
result: 0.088

query: Also check NakA (Mycobacterium tuberculosum) (protein) SVVKPTKVTVFSPDGGADNPGEADLAIDGNPATSWKTDIYTDPVPFPSFKNGVGLMLQLPQATVVGTVAIDVASTGTKVEIRSASTPTPATLEDTAVLTSATALRPGHNTISVEAAAPTSNLLVWISTLGTTDGKSQADISEITIYAASD
result: -0.305

query: Also check F17bG (Escherichia coli), Q47200 (protein) MTNFYKVFLAVFILVCCNISHAVVSFIGSTENDVGPSQGSYSSTHAMDNLPFVYNTGYNIGYQNANVWRIGGGFCVGLDGKVDLPVVGSLDGQSIYGLTEEVGLLIWMGDTNYSRGTAMSGNSWENVFSGWCVGNYLSTQGLSVHVRPVILKRNSSAQYSVQKTSIGSIRMRPYNGSSAGSVQTTVNFSLNPFTLNDTVTSCRLLTPSAVNVSLAAISAGQLPSSGDEVVAGTTSLKLQCDAGVTVWATLTDATTPSNRSDILTLTGASTATGVGLRIYKNTDSTPLKFGPDSPVKGNENQWQLSTGTETSPSVRLYVKYVNTGEGINPGTVNGISTFTFSYQ
result: -0.391

query: Also check Epa6 (Candida glabrata), Q6DTM7_CANGB (protein) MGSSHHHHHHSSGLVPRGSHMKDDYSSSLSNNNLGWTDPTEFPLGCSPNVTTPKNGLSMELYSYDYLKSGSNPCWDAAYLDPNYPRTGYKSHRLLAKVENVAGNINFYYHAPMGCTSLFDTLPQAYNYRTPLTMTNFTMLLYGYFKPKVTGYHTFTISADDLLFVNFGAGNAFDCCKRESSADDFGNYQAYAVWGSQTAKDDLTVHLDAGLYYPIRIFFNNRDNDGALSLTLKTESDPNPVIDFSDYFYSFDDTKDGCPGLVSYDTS
result: -0.234
